- Tested on: RKO
- test_summary: Cytotoxicity against human RKO cells assessed as growth inhibition incubated for 68 hrs by MTT assay
- Assay type: functional, cell-based
test_readout: IC50 (nM)
State just the number; it will be interpreted in nM.

For the compound shown here, CC(C)[C@H]1C(=O)O[C@H](C)[C@H](NC(=O)c2c3nc4c(C(=O)N[C@@H]5C(=O)N[C@H](C(C)C)C(=O)N6CCC[C@H]6C(=O)N(C)CC(=O)N(C)[C@@H](C(C)C)C(=O)O[C@@H]5C)ccc(Br)c4oc-3c(Br)c(=O)c2N)C(=O)N[C@H](C(C)C)C(=O)N2CCC[C@H]2C(=O)N(C)CC(=O)N1C , give the reported IC50.
1500
